Listed below: pIC50 values for each entry.
- target.system: Vasopressin V1a receptor (Homo sapiens)
- Sequence (P37288 whole entry): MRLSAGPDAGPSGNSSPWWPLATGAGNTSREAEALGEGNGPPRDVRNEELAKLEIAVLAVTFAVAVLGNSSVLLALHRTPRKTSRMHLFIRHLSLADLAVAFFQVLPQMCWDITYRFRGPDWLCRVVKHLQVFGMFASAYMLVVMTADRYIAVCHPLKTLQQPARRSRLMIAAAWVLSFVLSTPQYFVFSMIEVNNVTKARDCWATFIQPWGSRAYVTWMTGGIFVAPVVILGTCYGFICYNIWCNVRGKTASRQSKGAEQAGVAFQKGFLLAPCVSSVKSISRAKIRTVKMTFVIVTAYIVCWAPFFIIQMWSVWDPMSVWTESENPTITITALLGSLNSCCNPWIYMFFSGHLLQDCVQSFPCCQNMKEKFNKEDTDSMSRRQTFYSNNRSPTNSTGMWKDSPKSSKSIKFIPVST
- procedure.details: Antagonist activity at human vasopressin V1a receptor expressed in HEK293 cells assessed as inhibition of vasopressin-induced IP1 accumulation preincubated for 30 mins followed by vasopressin addition measured after 1 hr by HTRF assay
pIC50: −log10 of the molar value.

- structure.smiles: "Cn1ncc2c1Nc1ccccc1N(C(=O)CCc1ccc(N3CCN(Cc4cc(O)cc(O)c4)CC3)cc1)C2"
  target.system: "Vasopressin V1a receptor (Homo sapiens)"
  result.type: "pIC50"
  assay.result: "< 5.00"

Data request: Enter reported pIC50 observed with Vasopressin V1a receptor (Homo sapiens) for "COc1cc(CN2CCN(c3ccccc3CC(=O)N3Cc4cnn(C)c4Nc4ccccc43)CC2)cc(OC)c1"
Data returned: < 5.00

Data request: Return pIC50 measured with Vasopressin V1a receptor (Homo sapiens) given this molecule: "COc1cc(CN2CCN(c3cccc(CC(=O)N4Cc5cnn(C)c5Nc5ccccc54)c3)CC2)cc(OC)c1"
Data returned: < 5.00

Data request: Item: "COc1cc(CN2CCN(c3ccc(CCC(=O)N4Cc5cnn(C)c5Nc5ccccc54)cc3)CC2)cc(OC)c1" Test system: Vasopressin V1a receptor (Homo sapiens) Read-out: pIC50 Value: ?
Data returned: < 5.00

----------
- target.system: UniProt:P37288
Items are presented alongside their recorded pKi.
In simple prose, pKi is minus the logarithm base ten of a concentration in moles per litre.

Data request: Recorded pKi for "Cn1ncc2c1Nc1ccccc1N(C(=O)CCc1cccc(N3CCN(Cc4cc(O)cc(O)c4)CC3)c1)C2" with UniProt:P37288, please?
Data returned: 6.06

Data request: Give recorded pKi with UniProt:P37288 for the following molecule: "Cn1ncc2c1Nc1ccccc1N(C(=O)Cc1ccc(N3CCN(Cc4cc(O)cc(O)c4)CC3)cc1)C2"
Data returned: 6.10

----------
Recorded below: pKi, system Vasopressin V1a receptor (Homo sapiens).
Recall that pKi is obtained by taking minus log10 of the concentration measured in molar.

- structure.smiles: "Cn1ncc2c1Nc1ccccc1N(C(=O)CCc1ccc(N3CCN(Cc4cc(O)cc(O)c4)CC3)cc1)C2"
  assay.result: 5.76
- structure.smiles: "COc1cc(CN2CCN(c3ccccc3CCC(=O)N3Cc4cnn(C)c4Nc4ccccc43)CC2)cc(OC)c1"
  assay.result: 5.97

Data request: Find the recorded pKi belonging to "COc1cc(CN2CCN(c3ccc(CCC(=O)N4Cc5cnn(C)c5Nc5ccccc54)cc3)CC2)cc(OC)c1" and report it.
Data returned: 5.20

# credit: ChEMBL document CHEMBL4138154
